- targetSystem: BChE from equine serum (EqBChE) (Equus caballus, UniProt P81908)
- Construct: BChE from equine serum; purchased Merck (Prague, Czech Republic); host or cells: equine serum (natural source)
- Sequence (P81908 whole entry): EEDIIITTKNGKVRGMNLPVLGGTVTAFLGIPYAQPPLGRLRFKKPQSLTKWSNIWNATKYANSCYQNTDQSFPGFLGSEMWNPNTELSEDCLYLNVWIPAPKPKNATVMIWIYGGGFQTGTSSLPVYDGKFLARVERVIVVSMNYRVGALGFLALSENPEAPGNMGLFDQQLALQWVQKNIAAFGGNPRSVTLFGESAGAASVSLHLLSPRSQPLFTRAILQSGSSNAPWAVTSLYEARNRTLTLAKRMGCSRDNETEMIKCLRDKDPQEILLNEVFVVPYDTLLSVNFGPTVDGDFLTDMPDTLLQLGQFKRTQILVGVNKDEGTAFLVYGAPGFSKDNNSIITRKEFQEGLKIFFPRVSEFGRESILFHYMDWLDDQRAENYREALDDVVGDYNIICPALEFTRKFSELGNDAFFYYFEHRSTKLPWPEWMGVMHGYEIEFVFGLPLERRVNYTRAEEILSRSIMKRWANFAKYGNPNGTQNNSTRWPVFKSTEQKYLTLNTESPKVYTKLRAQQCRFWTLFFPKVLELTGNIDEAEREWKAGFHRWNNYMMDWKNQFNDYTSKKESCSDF
- testSummary: biochemical
- Assay type: biochemical
- protocolConditions: equine serum BChE; mean ± SD from three independent experiments
Overview of recorded IC50 for various compounds
Field format: number, assumed µM, no unit text.

Field: example entries. Status: answers known.
1) CNC(=O)NNC(=O)c1ccc(-c2ccccc2)cc1 301
2) CCCCCCCCCCCCCNC(=O)NNC(=O)c1cccc([N+](=O)[O-])c1 236
3) CCCCCCCCCCCCCNC(=O)NNC(=O)c1ccc(OC)cc1 376
4) CNC(=O)NNC(=O)c1ccccc1 229
5) CCCCCCCCCCCCCNC(=O)NNC(=O)c1ccc(S(N)(=O)=O)cc1 275
6) CNC(=O)NNC(=O)c1ccc(N(C)C)cc1 300

Identify measured IC50 associated with CCCCCCCCCCCCCNC(=O)NNC(=O)c1ccc(C#N)cc1
418

Identify measured IC50 associated with CNC(=O)NNC(=O)c1cccc(C(F)(F)F)c1
225

Identify measured IC50 associated with CNC(=O)NNC(=O)c1ccc(C)cc1
284

Identify measured IC50 associated with CNC(=O)NNC(=O)c1ccc(F)cc1
366

Source of measurements: paper PMC9962224
